Conditions: in dichloromethane, 279.15 K
OBSERVABLE: solubility (mole fraction)

>>> df
    smiles_representation  recorded_result
0  ON(Cc1ccccc1)Cc1ccccc1           0.0179

###

Settings: in ethyl acetate, 279.15 K
OBSERVABLE: solubility (mole fraction)

In [3]: df
Out[3]:
    smiles_representation                  observable  recorded_result
0  ON(Cc1ccccc1)Cc1ccccc1  solubility (mole fraction)           0.0114

###

Details: in isopropanol, 298.65 K
OBSERVABLE: solubility (mole fraction)

>>> print(df.to_string())
    smiles_representation  recorded_result
0  ON(Cc1ccccc1)Cc1ccccc1          0.00298
